Where do the numbers come from? From paper PMC2630366.

experimental.target: native hPAR2 (Homo sapiens, UniProt P55085)
Sequence (P55085 26-397): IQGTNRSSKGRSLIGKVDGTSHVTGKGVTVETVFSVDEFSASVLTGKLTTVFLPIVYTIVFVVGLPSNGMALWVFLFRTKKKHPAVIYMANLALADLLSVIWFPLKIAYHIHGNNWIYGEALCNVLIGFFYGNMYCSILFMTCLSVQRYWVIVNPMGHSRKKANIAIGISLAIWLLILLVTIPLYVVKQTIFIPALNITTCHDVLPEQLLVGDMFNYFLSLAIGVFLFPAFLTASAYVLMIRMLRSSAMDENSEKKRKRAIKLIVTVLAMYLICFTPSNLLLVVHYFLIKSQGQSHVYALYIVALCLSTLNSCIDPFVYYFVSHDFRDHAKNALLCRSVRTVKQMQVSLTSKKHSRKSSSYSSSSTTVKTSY
protocol.text: Selectivity: calcium mobilization, native hPAR2 in A549 cells
Format: cell-based
Where no end group is shown, it is not given here.
readout: pEC50
Numbers only, as −log10 of the molar value.

Quick check: pEC50 of SLIGKV-NH2 [SLIGKV-NH2] ?
4.66
